Record form. Attribute: growth. Fill in for each entry.
test system: OVCAR-3 ovarian; test: NCI-60 one-dose screen, 48 h (100 = growth as untreated, 0 = no growth, -100 = all killed); details: 10 µM
This is part of a sample that, as a whole, favours compounds with a hit. Of some 83,000 tested, about 20% had one in any assay.
Give bare numbers, in %.

[
  {
    "molecule": "O=C(Nc1ccc(Oc2ccc(Nc3nc4ccccc4s3)cc2)cc1)Nc1ccc(Cl)c(Cl)c1",
    "observed_value": 22.8
  }
]

Please state growth for every molecule in the list that follows.
1. N#Cc1ncc(-c2cc(F)ccc2F)c(NC2CCCCCC2)n1
2. Cc1ccc([P+](Cc2ccccc2)(c2ccccc2)c2ccccc2)cc1
3. Cn1c(=O)c2[nH]c(C(O)c3ccc(Cl)cc3)nc2n(C)c1=O (stereo unspecified)
4. O=C(Nc1cccc(Cl)c1)OCC(COC(=O)Nc1cccc(Cl)c1)(COC(=O)Nc1cccc(Cl)c1)[N+](=O)[O-]
5. COc1cccc(C(=O)NNc2nc(N3CCOCC3)nc(N3CCN(C(c4ccccc4)c4ccccc4)CC3)n2)c1

103
19.2
109
20.6
74.6
